system: DU145; assay: Euclidean distance of Cell Painting phenotypic profile (signed KS, 77 features) to DMSO centroid (dimensionless distance); 5 or 10 uM (library dependent); higher = stronger phenotypic change vs DMSO (phenoactivity); details: 48 h
Counter-ions that a name gives are not always drawn.

| Compound | Euclidean distance |
| --- | --- |
| CCN(CC)CCCCNc1ncc2cc(-c3cc(OC)cc(OC)c3)c(NC(=O)NC(C)(C)C)nc2n1 | 2.75 |
| Cc1cn(-c2cc(NC(=O)c3ccc(C)c(Nc4nccc(-c5cccnc5)n4)c3)cc(C(F)(F)F)c2)cn1 [Nilotinib hydrochloride] | 3.01 |
| O=C(O)CCC(=O)c1ccc(-c2ccccc2)cc1 [Fenbufen] | 0.988 |
| Cc1nc(C#Cc2ccnc(Cl)c2)c(C)n1-c1ccc(OC(F)(F)F)cc1 | 0.706 |
| Cn1nnnc1SCC1=C(C(=O)O)N2C(=O)[C@@H](NC(=O)[C@H](OC=O)c3ccccc3)[C@H]2SC1 [Cefamandole nafate] | 1.12 |
| C=C1/C(=C\C=C2/CCC[C@]3(C)[C@@H]([C@H](C)/C=C/[C@H](C)C(C)C)CC[C@@H]23)C[C@@H](O)C[C@@H]1O [Doxercalciferol] | 6.05 |
| NCCCCCNCC12CC3CC(CC(C3)C1)C2 [IEM 1754 dihydrobroMide] | 0.662 |
| CCn1cc(C(=O)O)c(=O)c2ccc(C)nc21 [Nalidixic acid] | 1.12 |
| CCOc1cc([C@@H](CS(C)(=O)=O)N2C(=O)c3cccc(NC(C)=O)c3C2=O)ccc1OC | 1.78 |
| OCc1ccccc1 [Benzyl alcohol] | 0.897 |
| O=C(CCCCCCC(=O)Nc1ccccc1)NO [Vorinostat (SAHA. MK0683)] | 3.15 |
| C=C1CC/C=C(/C)CC[C@@H]2[C@@H]1CC2(C)C [Œ≤-Caryophyllene] | 0.86 |
| CN/C(=N\CCSCc1nc[nH]c1C)NC#N [Cimetidine] | 0.762 |
| COCC(=O)NC/C=C/c1ccc2ncnc(Nc3ccc(Oc4ccc(C)nc4)c(C)c3)c2c1 | 1.13 |
| Cc1ccnc(NS(=O)(=O)c2ccc(N)cc2)n1 [Sulfamerazine] | 0.847 |
| Clc1ccc(C(Cn2ccnc2)OCc2ccsc2Cl)c(Cl)c1 (centres undefined) [Tioconazole] | 2.41 |
| CCC(=O)Oc1ccc2c(c1)CCC1C2CCC2(C)C(OC(=O)CC)CCC12 (stereo not drawn) [17-Beta-Estradiol-3.17-Dipropionate] | 1.46 |
| CCOc1ccc2nc(S(N)(=O)=O)sc2c1 [Ethoxzolamide] | 1.34 |
| CN(C)CCOC(=O)COc1ccc(Cl)cc1 [Meclofenoxate (Centrophenoxine) HCl] | 1.3 |
